# assay target: human MLKL executioner domain (WT) (Homo sapiens)
# Construct: 80 µM MLKL N-terminal executioner domain (residues 1 to 154) was used; GST (thrombin cleavage site) (cleaved yes)
# Sequence (Q8NB16 1-154): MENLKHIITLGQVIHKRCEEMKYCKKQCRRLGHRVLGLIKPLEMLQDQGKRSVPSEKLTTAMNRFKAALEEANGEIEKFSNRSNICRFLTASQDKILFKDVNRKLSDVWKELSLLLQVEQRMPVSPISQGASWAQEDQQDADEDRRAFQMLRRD
# protocol: Functional NMR assay (detachment of α-helix 6), WT
# Type: biochemical
# condition summary: WT, 12 mM NM + 500 µM IP6 + 500 µM xanthine compound, compared with Cpd 3 (Fig. 3C)
measured metric: Inhibitory effect on MLKL activation (α-helix 6 detachment), in words

smiles record | assay target | reported value
COCCOCn1c(S(C)(=O)=O)nc2c1c(=O)n(C)c(=O)n2C | human MLKL executioner domain (WT) (Homo sapiens) | even less activated
Cn1c(=O)c2c(nc(S(C)(=O)=O)n2C)n(C)c1=O | human MLKL executioner domain (WT) (Homo sapiens) | even less activated
